The measured values listed here are drawn from ChEMBL document CHEMBL3085626.

Provide the recorded pIC50 for the entries that follow.
Target: Acetylcholinesterase (Electrophorus electricus)
Sequence (O42275 whole entry): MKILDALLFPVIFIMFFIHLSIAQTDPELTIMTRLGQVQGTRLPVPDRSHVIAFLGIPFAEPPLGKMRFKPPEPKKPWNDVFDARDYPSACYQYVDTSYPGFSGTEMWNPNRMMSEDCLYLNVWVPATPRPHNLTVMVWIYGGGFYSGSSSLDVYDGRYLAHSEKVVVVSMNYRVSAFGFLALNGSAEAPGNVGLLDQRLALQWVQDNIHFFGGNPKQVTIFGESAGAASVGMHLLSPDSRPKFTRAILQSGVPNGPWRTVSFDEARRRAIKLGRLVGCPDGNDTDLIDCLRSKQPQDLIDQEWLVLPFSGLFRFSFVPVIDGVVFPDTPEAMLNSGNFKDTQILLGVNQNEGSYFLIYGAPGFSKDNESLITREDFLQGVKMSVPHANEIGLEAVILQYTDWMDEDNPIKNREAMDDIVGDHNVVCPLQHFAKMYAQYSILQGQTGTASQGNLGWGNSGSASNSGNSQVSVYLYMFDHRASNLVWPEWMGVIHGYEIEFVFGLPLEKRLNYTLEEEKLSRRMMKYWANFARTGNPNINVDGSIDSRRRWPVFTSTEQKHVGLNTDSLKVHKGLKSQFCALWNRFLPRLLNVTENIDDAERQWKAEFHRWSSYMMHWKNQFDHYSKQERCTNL
// pIC50: -log10(molar conc.)

## Task What value of measured pIC50 is listed for COc1cc2[se]n(CC3CCN(Cc4ccccc4)CC3)c(=O)c2cc1OC ?
## Result 5.37

## Task What value of measured pIC50 is listed for COc1cc2[se]n(CCCC3CCN(Cc4ccccc4)CC3)c(=O)c2cc1OC ?
## Result 7.14

## Task What value of measured pIC50 is listed for O=c1c2ccc(Cl)cc2[se]n1C1CCN(Cc2ccccc2)CC1 ?
## Result 5.00

## Task What value of measured pIC50 is listed for COc1cc2c(cc1OC)[Se](=O)N(CCC1CCN(Cc3ccccc3)CC1)C2=O (stereo not given) ?
## Result 7.37

## Task What value of measured pIC50 is listed for O=c1c2ccc(Cl)cc2[se]n1CC1CCN(Cc2ccccc2)CC1 ?
## Result 5.21
